B1: library; a variant is named by its letters at N, in order (parent)
chain: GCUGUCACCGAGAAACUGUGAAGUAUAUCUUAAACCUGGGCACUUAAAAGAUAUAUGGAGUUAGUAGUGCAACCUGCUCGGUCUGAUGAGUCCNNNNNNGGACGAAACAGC

Variants of: B1
Test: normalized RNA/DNA level without ligand (relative to sTRSVctl = 100) (log10 (% of sTRSVctl)); HEK293T; ligand: cyclic di-GMP (c-di-GMP-II aptamer); higher = less ribozyme self-cleavage, higher mRNA level
Details: reporter: mCherry (pCS4076), ligand present: no
parameterMeasured: normalized RNA/DNA level without ligand (log10)

mutation	recordedNumber
UAUCUG	1.72
CUAAUA	1.39
GGACCU	1.74
GUGGGU	1.66
CGAAAG	1.78
AGCGGC	1.73
UUACAA	1.64
CCUCUG	1.63
AAAGCC	1.7
UAAGUA	1.61
GGUGAA	1.34
UCUCGC	1.81
GCCGAG	1.65
CCGCUC	1.66
UUGUUC	1.75
UUACGA	1.77
GUCUGC	1.73
UGCUAU	1.68
UGCUAC	1.7
AUCACG	1.64
UAGCUC	1.75
AAAAGU	1.52
CGGCCC	1.94
UAGCGC	1.76
GCGAGC	1.55
GCUUGC	1.77
CUAUGA	1.6
CAUAUA	1.3
CCGCCU	1.7
UUGGAC	1.66
UAUAUG	1.71
AGGAGC	1.61
UAUGAG	1.65
CGUAUG	1.73
CUUGGA	1.55
CGGCAG	1.79
UACGGC	1.72
GGGGGC	1.77
UCGCAC	1.7
GCGUUA	1.54
UUGCAC	1.75
CUGUGU	1.75
AUUAGC	1.66
UCUCAG	1.75
UAGCGU	1.59
AGAUCC	1.81

Numbers sourced from the supplement of paper PMC6757056.
